Test system: Klebsiella pneumoniae
Settings: Concentration 32 ug.mL-1;; ASSAY_TEST Inhibition of Bacterial Growth; detection method Absorption (OD600); MEDIA CAMHB; plate type 384well; NBS; CORNING #3640; time 18 hr
Description: Antibacterial activity against Klebsiella pneumoniae MDR ATCC 70063 (CO-ADD:GN_003); MIC in CAMBH media using NBS plates, by OD(600)
Results with a measured potency or affinity are listed apart.
property: Inhibition (%)
Write the answer as a number in %, unit excluded.

- structure-smiles: "O=C(Cn1nc2ccc(Sc3ccccc3)nn2c1=O)Nc1ccc(Cl)cc1"
  target-of-assay: "Klebsiella pneumoniae"
  Inhibition / %: 9.24
- structure-smiles: "CCOc1ccc(C(=O)CSc2nnc3c(=O)n(-c4ccc(OCC)cc4)ccn23)cc1"
  target-of-assay: "Klebsiella pneumoniae"
  Inhibition / %: 14.22
- structure-smiles: "Cc1ccc(NC(=O)Cn2nc3c(Oc4ccccc4)nccn3c2=O)c(Br)c1"
  target-of-assay: "Klebsiella pneumoniae"
  Inhibition / %: -5.15
- structure-smiles: "COc1ccc(NC(=O)Cn2nc3c(Oc4ccccc4)nccn3c2=O)cc1"
  target-of-assay: "Klebsiella pneumoniae"
  Inhibition / %: 8.21
- structure-smiles: "CSc1cccc(NC(=O)Cn2nc3c(N4CCCC4)nccn3c2=O)c1"
  target-of-assay: "Klebsiella pneumoniae"
  Inhibition / %: 1.74

Quick note, Inhibition for Cc1cc(C)cc(N(Cc2cccc(Cl)c2)S(=O)(=O)c2cccn3cnnc23)c1 landed at 9.53

Quick note, Inhibition for CCOc1ccc(N(Cc2cccc(F)c2)S(=O)(=O)c2ccc3nncn3c2)cc1 landed at 6.73

----------
Test system: Cryptococcus neoformans
Settings: Concentration 32 ug.mL-1; ASSAY_TEST Inhibition of Fungal Growth; detection method Resazurin; Absorption (OD600-OD570); plate type 384well; NBS; CORNING #3640
Description: Antifungal activity against Cryptococcus neoformans H99 ATCC 208821 (CO-ADD:FG_002); MIC in YNB media using NBS plates, by Resazurin OD(600-570)
Potency and affinity values are given separately.
Inhibition for assorted compounds
Write the answer as a number in %, unit excluded.

Here is how some compounds turned out for Inhibition.
- structure-smiles: "COc1cccc(-n2ccn3c(SCC(=O)Nc4ccc(Br)cc4)nnc3c2=O)c1"
  property: "Inhibition"
  endpoint-value: -9.82
- structure-smiles: "CC(C)NC(=O)Cn1nc2nc(Nc3ccc(F)cc3)ccn2c1=O"
  property: "Inhibition"
  endpoint-value: -10.27
- structure-smiles: "COc1ccc(NC(=O)Cn2nc3ccc(SC(C)(C)C)nn3c2=O)cc1OC"
  property: "Inhibition"
  endpoint-value: -14.12

Quick note, Inhibition for COc1ccc(NC(=O)c2ccc3nn(CC(=O)Nc4ccc5c(c4)OCCO5)c(=O)n3c2)cc1 landed at -23.54

Quick note, Inhibition for CCOc1ccc(-n2ccn3c(SCC(=O)Nc4cc(OC)cc(OC)c4)nnc3c2=O)cc1 landed at -7.81

----------
Inhibition for assorted molecules
System: Cryptococcus neoformans
Details: Concentration 32 ug.mL-1; ASSAY_TEST Inhibition of Fungal Growth; detection method Resazurin; Absorption (OD600-OD570); plate type 384well; NBS; CORNING #3640
Measured potencies and affinities stand elsewhere.
Write the answer as a number in %, unit excluded.

Here is how some molecules turned out for Inhibition.
- structure-smiles: "Cc1nc(-c2ccccc2)cc2nn(CC(=O)Nc3ccc4c(c3)OCO4)c(=O)n12"
  Inhibition / %: -7.69
- structure-smiles: "Cc1cccc(-c2nc(CSc3nc4ccccc4n4c(C)nnc34)c(C)o2)c1"
  Inhibition / %: -23.71
- structure-smiles: "O=C(Cn1nc2c(Sc3ccccc3)nccn2c1=O)Nc1cccc(Cl)c1F"
  Inhibition / %: -9.38

Now, please, on to the next molecule.
Record CN(C)C(=O)CSc1nnc2c(=O)n(-c3ccc(F)cc3)ccn12 / Cryptococcus neoformans, Inhibition recorded as -5.4

----------
Tested on: Candida albicans
Conditions: Concentration 32 ug.mL-1; ASSAY_TEST Inhibition of Fungal Growth; detection method Absorption (OD530)
Description: Antifungal activity against Candida albicans ATCC 90028 (CO-ADD:FG_001); MIC in YNB media using NBS plates, by OD630
Measured potencies and affinities stand elsewhere.
Inhibition for assorted compounds
Write the answer as a number in %, unit excluded.

Here is how some compounds turned out for Inhibition.
- structure-smiles: "COc1ccccc1-n1ccn2c(SCc3cccc(Cl)c3)nnc2c1=O"
  property: "Inhibition"
  unit-of-measure: "%"
  endpoint-value: 1.65
- structure-smiles: "COc1cc(NC(=O)Cn2nc3c(Sc4cccc(F)c4)nccn3c2=O)cc(OC)c1"
  property: "Inhibition"
  unit-of-measure: "%"
  endpoint-value: 1.46
- structure-smiles: "Cc1ccccc1Oc1nc2ccccc2n2c(=O)n(CC(=O)Nc3ccccc3C(F)(F)F)nc12"
  property: "Inhibition"
  unit-of-measure: "%"
  endpoint-value: 11.93
- structure-smiles: "COc1ccc(CNC(=O)Cn2nc3c(N4CCOCC4)nccn3c2=O)cc1"
  property: "Inhibition"
  unit-of-measure: "%"
  endpoint-value: 6.15

Quick note, Inhibition for Cc1cccc(Oc2nccn3c(=O)n(CC(=O)Nc4cccc(C(F)(F)F)c4)nc23)c1C landed at 16

Quick note, Inhibition for COc1ccc(Cl)cc1NC(=O)CSc1nnc2c(=O)n(-c3ccccc3)ccn12 landed at 3.46

Quick note, Inhibition for COc1ccc(-c2cc3c4nnc(SCC(=O)Nc5ccc(C)c(F)c5)n4ccn3n2)cc1 landed at 19.06

Quick note, Inhibition for CC(C)CCNC(=O)CSc1nnc2c3cc(-c4ccccc4)nn3ccn12 landed at 4.42

----------
Inhibition for assorted compounds
Test system: Candida albicans
Details: Concentration 32 ug.mL-1; ASSAY_TEST Inhibition of Fungal Growth; detection method Absorption (OD530)
Results with a measured potency or affinity are listed apart.
Write the answer as a number in %, unit excluded.

Here is how some compounds turned out for Inhibition.
- structure-smiles: "Cc1ccc(-c2cc3c4nn(CC(=O)Nc5cc(Cl)ccc5C)c(=O)n4ccn3n2)cc1C"
  endpoint-value: 4.85
- structure-smiles: "CCCc1nnc2c(=O)n(CC(=O)Nc3ccc(NC(C)=O)cc3)c3ccccc3n12"
  endpoint-value: -0.49

Record Cc1ccc(NC(=O)CSc2nnc3c(=O)n(-c4ccccc4)ccn23)c(C)c1 / Candida albicans, Inhibition recorded as 2.18

----------
Tested on: Cryptococcus neoformans
Settings: Concentration 32 ug.mL-1; ASSAY_TEST Inhibition of Fungal Growth; detection method Resazurin; Absorption (OD600-OD570); plate type 384well; NBS; CORNING #3640
Entries with a potency or affinity are not part of this list.
property: Inhibition (%)
Write the answer as a number in %, unit excluded.

Here is how some compounds turned out for Inhibition.
- compound: "Cc1ccc(-c2cc3c4nn(CC(=O)N5CCN(c6ccc(F)cc6)CC5)c(=O)n4ccn3n2)cc1C"
  unit-of-measure: "%"
  Inhibition: -26.79
- compound: "Cc1ccc(-c2cc3c4nn(CC(=O)Nc5ccccc5C)c(=O)n4ccn3n2)cc1C"
  unit-of-measure: "%"
  Inhibition: -10.57
- compound: "COc1cccc(Sc2nc3ccccc3n3c(=O)n(CC(=O)Nc4ccccc4)nc23)c1"
  unit-of-measure: "%"
  Inhibition: -26.53
- compound: "CCc1ccccc1Sc1nccn2c(=O)n(CC(=O)Nc3cc(Cl)c(OC)cc3OC)nc12"
  unit-of-measure: "%"
  Inhibition: -4.37

Quick note, Inhibition for Cc1ccc(-n2ccn3c(SCC(=O)Nc4ccc5c(c4)OCCO5)nnc3c2=O)cc1C landed at -6.74

Quick note, Inhibition for CC(C)(C)NC(=O)Cn1nc2n(Cc3cccs3)c(=O)c3sccc3n2c1=O landed at -8.9

Quick note, Inhibition for Cc1ccc(NC(=O)CSc2nnc3c(=O)n(-c4ccc(C)c(C)c4)ccn23)c(Cl)c1 landed at -10.04

Quick note, Inhibition for CC(C)Cn1c(=O)c2sccc2n2c(=O)n(Cc3ccc(Br)cc3)nc12 landed at -27.05

Quick note, Inhibition for CCOC(=O)c1ccccc1NC(=O)Cn1nc2c3sc(N4CCCC4)nc3ncn2c1=O landed at -6

----------
Tested on: Cryptococcus neoformans
Settings: Concentration 32 ug.mL-1; ASSAY_TEST Inhibition of Fungal Growth; detection method Resazurin; Absorption (OD600-OD570); plate type 384well; NBS; CORNING #3640
Results with a measured potency or affinity are listed apart.
Inhibition for assorted compounds
Write the answer as a number in %, unit excluded.

- structure-smiles: "Cc1ccc(-c2cc3c4nn(CC(=O)NCc5ccccc5)c(=O)n4ccn3n2)cc1C"
  Inhibition (%): -12.84
- structure-smiles: "COc1ccc(Cl)cc1NC(=O)Cn1nc2ccc(Sc3ccccc3)nn2c1=O"
  Inhibition (%): -15.66
- structure-smiles: "O=C(Cn1nc2nc(Nc3ccc(F)cc3)ccn2c1=O)N1CCOCC1"
  Inhibition (%): -13.19
- structure-smiles: "COc1ccc(C)cc1NC(=O)Cn1nc2c3cc(-c4ccc(Cl)cc4)nn3ccn2c1=O"
  Inhibition (%): -27.09
- structure-smiles: "Cc1ccc(NC(=O)Cn2c(=O)c3nnc(C)n3c3ccccc32)cc1C"
  Inhibition (%): -4.45
- structure-smiles: "O=c1n(Cc2cccc(Cl)c2)nc2ccc(-c3ccccc3)nn12"
  Inhibition (%): -20.37
- structure-smiles: "COc1ccc(OC)c(NC(=O)Cn2nc3ccc(SCc4ccc(Cl)cc4)nn3c2=O)c1"
  Inhibition (%): -22.41
- structure-smiles: "Cc1cccc(NC(=O)CSc2nnc3c4cc(-c5ccc(F)cc5)nn4ccn23)c1C"
  Inhibition (%): -21.34

Now, please, on to the next compound.
Record CCOc1ccc(-n2ccn3c(SCC(=O)Nc4ccc(Cl)cc4)nnc3c2=O)cc1 / Cryptococcus neoformans, Inhibition recorded as -6.67
